Catalogue of Dmax values
Assay Target: ITK (Homo sapiens, UniProt Q08881)
Sequence (Q08881 whole entry): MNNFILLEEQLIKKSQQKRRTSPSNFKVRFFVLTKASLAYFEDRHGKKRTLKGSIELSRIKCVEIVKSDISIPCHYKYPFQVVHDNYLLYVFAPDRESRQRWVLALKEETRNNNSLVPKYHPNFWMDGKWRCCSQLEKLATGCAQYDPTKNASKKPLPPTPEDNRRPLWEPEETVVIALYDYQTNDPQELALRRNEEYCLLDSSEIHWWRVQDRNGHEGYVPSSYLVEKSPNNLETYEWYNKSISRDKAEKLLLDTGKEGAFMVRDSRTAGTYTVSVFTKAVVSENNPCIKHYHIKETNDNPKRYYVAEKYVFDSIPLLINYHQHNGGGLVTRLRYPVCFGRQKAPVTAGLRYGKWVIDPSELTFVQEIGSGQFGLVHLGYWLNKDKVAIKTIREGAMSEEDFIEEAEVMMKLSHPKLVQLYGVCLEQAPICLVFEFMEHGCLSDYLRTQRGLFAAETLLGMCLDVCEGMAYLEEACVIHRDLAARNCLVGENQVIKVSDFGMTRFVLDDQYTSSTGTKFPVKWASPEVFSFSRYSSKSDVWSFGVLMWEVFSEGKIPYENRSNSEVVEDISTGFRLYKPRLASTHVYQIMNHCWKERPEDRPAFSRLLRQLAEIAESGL
Assay Details: ITK degradation HiBiT assay
Type: cell-based
Set-up: expressed in transfected cells; host or cells: Molt4 (ATCC CRL-1552), monoclonal clone 1C10, engineered to carry the HiBiT tag
Run Parameters: MOLT-4, C-terminal HiBiT-tagged Molt4 cells, 4 hrs
// return numeric value only (unit: %, not printed)

Example entries begin here.
C[C@@]12Cc3[nH]nc(C(=O)Nc4cnn(C5CCC(CN6CCC(Oc7ccc(C8CCC(=O)NC8=O)cn7)CC6)CC5)c4)c3C[C@@H]1C2(F)F (some centres unmarked); 90
C[C@@H](C(=O)N(C)c1ccc2cc(-c3n[nH]c4c3CCC(C)(C)C4)[nH]c2c1)N1CCN(CC2CCN(c3cccc4c3n(C)c(=O)n4C3CCC(=O)NC3=O)CC2)CC1 (some centres unmarked); 76
C[C@@]12Cc3[nH]nc(C(=O)Nc4cnn(C5CCC(CN6CCc7cc(C8CCC(=O)NC8=O)ccc7C6)CC5)c4)c3C[C@@H]1C2(F)F (mixture of isomers); 63
CC1(C)CCc2c(C(=O)Nc3cnn([C@H]4CC[C@H](C(=O)N5CCN(c6ccc(C7CCC(=O)NC7=O)cn6)CC5)CC4)c3)n[nH]c2C1 (mixture of isomers); 65
C[C@@]12Cc3[nH]nc(C(=O)Nc4cnn(C5CCN(C(=O)C6CCN(c7ccc(C8CCC(=O)NC8=O)cn7)C6)CC5)c4)c3C[C@@H]1C2(F)F (mixture of isomers); 86

Note to self: Dmax recorded for C[C@@]12Cc3[nH]nc(C(=O)Nc4cnn(C5CN(CC6CCN(c7ccc(C8CCC(=O)NC8=O)cc7)CC6)C5)c4)c3C[C@@H]1C2(F)F (some centres unmarked) was 85

get_value(item= C[C@@]12Cc3[nH]nc(C(=O)Nc4cnn([C@H]5CCN(CC6CCN(c7ccc(C(=O)N[C@H]8CCC(=O)NC8=O)nc7)CC6)C[C@@H]5F)c4)c3C[C@@H]1C2(F)F , readout=Dmax) returns 97

Lab book: Dmax of Cn1c(=O)n(C2CCC(=O)NC2=O)c2cccc(N3CCC(CN4CCC5(CC4)CCN(c4ccc6cc(-c7n[nH]c8c7CCC(C)(C)C8)[nH]c6c4)C5=O)CC3)c21 (centres unmarked) noted as 90

Dmax reported for this molecule C[C@@]12Cc3[nH]nc(-c4cc5ccc(C(=O)N6CCN(CC7CCN(c8ccc(C9CCC(=O)NC9=O)cc8)CC7)CC6)cc5[nH]4)c3C[C@@H]1C2 (mixture of isomers) : 84

Record summary for CN(c1ccc2cc(-c3n[nH]c4c3C[C@@H]3C(F)(F)[C@]3(C)C4)[nH]c2c1)C(=O)[C@H]1C[C@]2(CCN(c3ccc4c(c3)C(=O)N([C@H]3CCC(=O)NC3=O)C4=O)C2)C1 (racemic) [Compound 71b] : reported Dmax = 85

Form: molecule = C[C@@H]1CN(C(=O)c2ccc3cc(-c4n[nH]c5c4CCC(C)(C)C5)[nH]c3c2)CCN1CC1CCN(c2ccc(C3CCC(=O)NC3=O)cn2)CC1 (some centres unmarked) ; Dmax = 81
